Quick reference: LogP of the listed items.
Conditions: pH 2.7
Marks after values point to notes of the source that are not given here.

{"columns": ["molecule", "LogP"],
 "data": [
  ["Cc1cccc(CC(O)(Cn2cncn2)C2(Cl)CC2)n1 (stereo not drawn)", "0.52^[a]"],
  ["OC(Cc1c(Cl)cncc1Cl)(Cn1cncn1)c1ccc(Cl)nc1 (racemic)", "1.89^[a]"],
  ["OC(Cc1cc(Cl)ncc1Cl)(Cn1cncn1)C1(Cl)CC1 (stereo not drawn)", "2.53^[a]"],
  ["OC(Cc1cc(Cl)nc(Cl)c1)(Cn1cncn1)C1(Cl)CC1 (stereo not drawn)", "2.54^[a]"],
  ["Cc1ccnc(CC(O)(Cn2cncn2)C2(Cl)CC2)c1 (stereo not drawn)", "0.52^[a]"],
  ["OC(Cc1cncc(Oc2ccc(Cl)cc2)n1)(Cn1cncn1)C1(Cl)CC1 (stereo not drawn)", "2.88^[a]"],
  ["OC(COc1ccc(F)cc1)(Cc1ccncc1Cl)Cn1cncn1 (racemic)", "1.86^[a]"],
  ["OC(Cc1cc(Cl)ncc1F)(Cn1cncn1)C1(Cl)CC1 (stereo not drawn)", "2.06^[a]"],
  ["OC(Cc1c(Cl)cncc1Cl)(Cn1cncn1)C1(F)CC1 (racemic)", "1.86^[a]"]
]}
